- System: BT-474
- assay_protocol: normalised response (% of control), CellTox Green; higher = less cell death (100 = DMSO, 0 = benzethonium chloride kill control)
- condition_info: incubation time: 72 h
Below is a list of entries, each paired with its recorded normalised response value.

| compound | normalised response [%] |
| --- | --- |
| CC(C)(C)Cn1c(N)nc2ccc(-c3[nH]c(C(C)(C)C)nc3-c3ccc(F)cc3)nc21 (10000 nM) | 89.8 |
| Nc1nc(Cl)nc2c1ncn2[C@@H]1O[C@H](CO)[C@@H](O)[C@@H]1F [Clofarabine] (1000 nM) | 100 |
| Cc1c(C(=O)Nc2ccc(N3C[C@@H](C)O[C@@H](C)C3)nc2)cccc1-c1ccc(OC(F)(F)F)cc1 [Erismodegib] (1000 nM) | 103 |
| CCc1c(C(=O)C(N)=O)c2c(OCC(=O)O)cccc2n1Cc1ccccc1 [Varespladib] (1000 nM) | 99.9 |
| C[C@]12C=CC(=O)C=C1CC[C@@H]1[C@@H]2C(=O)C[C@@]2(C)[C@H]1CC[C@]2(O)C(=O)CO [Prednisone] (10000 nM) | 101 |

###

- Tested on: MDA-MB-468
- assay_protocol: normalised response (% of control), CellTiter-Glo; higher = more viable cells (100 = DMSO, 0 = benzethonium chloride kill control)
- condition_info: incubation time: 72 h
Items are presented alongside their recorded normalised response.

| compound | tested_on | normalised response |
| --- | --- | --- |
| CCCCCOC(=O)Nc1nc(=O)n([C@@H]2O[C@H](C)[C@@H](O)[C@H]2O)cc1F [Capecitabine] (10 nM) | MDA-MB-468 | 91.9% |
| O=C(O)CC[C@H]1CC[C@@](c2cc(F)ccc2F)(S(=O)(=O)c2ccc(Cl)cc2)CC1 [MK-0752] (1 nM) | MDA-MB-468 | 98.5% |
| O=C(c1cc(Cc2n[nH]c(=O)c3ccccc23)ccc1F)N1CCN(C(=O)C2CC2)CC1 [Olaparib] (10 nM) | MDA-MB-468 | 101% |

###

- Test system: HDQ-P1
- assay_protocol: normalised viability (% of control), CellTiter-Blue; higher = more viable cells (about 100 = DMSO control)
- condition_info: incubation time: 72 h
experimental_endpoint: normalised viability (%)

| molecule | tested_on | meas_value |
| --- | --- | --- |
| CCN(CC)CCOc1ccc(C(=C(Cl)c2ccccc2)c2ccccc2)cc1 [Clomifene] (1000 nM) | HDQ-P1 | 128 |
| C[C@@H](CN1CC(=O)NC(=O)C1)N1CC(=O)NC(=O)C1 [Dexrazoxane] (1000 nM) | HDQ-P1 | 107 |
| CN1CCN(c2nc(C3=C(c4c[nH]c5ccccc45)C(=O)NC3=O)c3ccccc3n2)CC1 [Sotrastaurin] (1000 nM) | HDQ-P1 | 100 |
| C[C@@H]1C[C@H]2[C@@H]3CCC4=CC(=O)C=C[C@]4(C)[C@@]3(F)[C@@H](O)C[C@]2(C)[C@@]1(O)C(=O)CO [Dexamethasone] (1000 nM) | HDQ-P1 | 117 |
| Cc1c(N)nc([C@H](CC(N)=O)NC[C@H](N)C(N)=O)nc1C(=O)N[C@H](C(=O)N[C@H](C)[C@@H](O)[C@H](C)C(=O)N[C@H](C(=O)NCCc1nc(-c2nc(C(=O)NCCC[S+](C)C)cs2)cs1)[C@@H](C)O)[C@@H](OC1OC(CO)C(O)C(O)C1OC1OC(CO)C(O)C(OC(N)=O)C1O)c1cnc[nH]1 (some centres not stated) [Bleomycin] (1000 nM) | HDQ-P1 | 88 |
| C[C@]12C=CC(=O)C=C1CC[C@@H]1[C@@H]2C(=O)C[C@@]2(C)[C@H]1CC[C@]2(O)C(=O)CO [Prednisone] (1000 nM) | HDQ-P1 | 122 |
| N[C@@H](Cc1ccc(N(CCCl)CCCl)cc1)C(=O)O [Melphalan] (99 nM) | HDQ-P1 | 100 |

###

- System: MDA-MB-231
- assay_protocol: drug sensitivity score (DSS), CellTox Green (DSS (AUC-based score)); higher = stronger drug effect (viability inhibition or cytotoxicity); extreme values may be limits of the assay
- condition_info: incubation time: 72 h

| compound | drug sensitivity score |
| --- | --- |
| CCc1cnn2c(NCc3ccc[n+]([O-])c3)cc(N3CCCC[C@H]3CCO)nc12 [Dinaciclib] | 25.4 |
| NC(=O)NO [Hydroxyurea] | 0 |
| CO[C@H](C(=O)[C@@H](O)[C@@H](C)O)[C@@H]1Cc2cc3cc(O[C@H]4C[C@@H](O[C@@H]5C[C@@H](O)[C@H](O)[C@@H](C)O5)[C@H](O)[C@@H](C)O4)c(C)c(O)c3c(O)c2C(=O)[C@H]1O[C@H]1C[C@@H](O[C@@H]2C[C@@H](O)[C@@H](O[C@@H]3C[C@](C)(O)[C@H](O)[C@@H](C)O3)[C@@H](C)O2)[C@H](O)[C@@H](C)O1 [Plicamycin] | 0 |
| Nc1nc(Cl)nc2c1ncn2[C@@H]1O[C@H](CO)[C@@H](O)[C@@H]1F [Clofarabine] | 0 |
| Cn1cc(C[C@@H](N)C(=O)O)c2ccccc21 [1-methyl-D-tryptophan] | 0 |

###

- System: BT-474
- assay_protocol: normalised viability (% of control), CellTiter-Blue; higher = more viable cells (about 100 = DMSO control)
- condition_info: 1000 nM; incubation time: 72 h
experimental_endpoint: normalised viability

| compound | experimental_endpoint | meas_value |
| --- | --- | --- |
| CC/C(=C(\c1ccccc1)c1ccc(OCCN(C)C)cc1)c1ccccc1 | normalised viability | 117% |
| COc1cc2c(N3CCN(C(=O)Nc4ccc(OC(C)C)cc4)CC3)ncnc2cc1OCCCN1CCCCC1 | normalised viability | 125% |
| CC[C@@H]1C(=O)N(C)c2cnc(Nc3ccc(C(=O)N[C@H]4CC[C@H](N5CCN(CC6CC6)CC5)CC4)cc3OC)nc2N1C(C)C | normalised viability | 96.8% |
| CN1CCN(c2nc(C3=C(c4c[nH]c5ccccc45)C(=O)NC3=O)c3ccccc3n2)CC1 | normalised viability | 109% |
| Cn1nnc2c(C(N)=O)ncn2c1=O [Temozolomide] | normalised viability | 100% |
| NC(=O)c1cccc2cn(-c3ccc([C@@H]4CCCNC4)cc3)nc12 | normalised viability | 100% |
| O=NN(CCCl)C(=O)NC1CCCCC1 | normalised viability | 114% |
| COc1cc2c(Oc3ccc(NC(=O)C4(C(=O)Nc5ccc(F)cc5)CC4)cc3F)ccnc2cc1OCCCN1CCOCC1 | normalised viability | 84.3% |

###

- System: SK-BR-3
- assay_protocol: drug sensitivity score (DSS), CellTiter-Blue viability (DSS (AUC-based score)); higher = stronger viability inhibition; extreme values may be limits of the assay
- condition_info: incubation time: 72 h
experimental_endpoint: drug sensitivity score

| compound | tested_on | meas_value |
| --- | --- | --- |
| Cc1c(C(=O)Nc2ccc(N3C[C@@H](C)O[C@@H](C)C3)nc2)cccc1-c1ccc(OC(F)(F)F)cc1 | SK-BR-3 | 0 |
| Cc1c(N)nc([C@H](CC(N)=O)NC[C@H](N)C(N)=O)nc1C(=O)N[C@H](C(=O)N[C@H](C)[C@@H](O)[C@H](C)C(=O)N[C@H](C(=O)NCCc1nc(-c2nc(C(=O)NCCC[S+](C)C)cs2)cs1)[C@@H](C)O)[C@@H](OC1OC(CO)C(O)C(O)C1OC1OC(CO)C(O)C(OC(N)=O)C1O)c1cnc[nH]1 (some centres not stated) | SK-BR-3 | 0 |

###

# normalised response per record follows
- Test system: DU-4475
- assay_protocol: normalised response (% of control), CellTiter-Glo; higher = more viable cells (100 = DMSO, 0 = benzethonium chloride kill control)
- condition_info: incubation time: 72 h
experimental_endpoint: normalised response (%)

| molecule | tested_on | experimental_endpoint | result_units | meas_value |
| --- | --- | --- | --- | --- |
| CN1CCc2c(c3ccccc3n2Cc2ccc(C(=O)NO)cc2)C1 [Tubastatin A] (10000 nM) | DU-4475 | normalised response | % | 79.9 |
| CO[C@H]1C[C@@H]2CC[C@@H](C)[C@@](O)(O2)C(=O)C(=O)N2CCCC[C@H]2C(=O)O[C@H]([C@H](C)C[C@@H]2CC[C@@H](O)[C@H](OC)C2)CC(=O)[C@H](C)/C=C(\C)[C@@H](O)[C@@H](OC)C(=O)[C@H](C)C[C@H](C)/C=C/C=C/C=C/1C [Sirolimus] (100 nM) | DU-4475 | normalised response | % | 72.8 |
| CC(C)n1nc(-c2ccc3oc(N)nc3c2)c2c(N)ncnc21 [INK128] (1000 nM) | DU-4475 | normalised response | % | 18.4 |
| CCN(CC)CCOc1ccc(C(=C(Cl)c2ccccc2)c2ccccc2)cc1 [Clomifene] (10000 nM) | DU-4475 | normalised response | % | 44.1 |
| CN1CCN(c2nc(C3=C(c4c[nH]c5ccccc45)C(=O)NC3=O)c3ccccc3n2)CC1 [Sotrastaurin] (10000 nM) | DU-4475 | normalised response | % | 76.4 |
| CC[C@@H]1C(=O)N(C)c2cnc(Nc3ccc(C(=O)N[C@H]4CC[C@H](N5CCN(CC6CC6)CC5)CC4)cc3OC)nc2N1C(C)C [Volasertib] (1000 nM) | DU-4475 | normalised response | % | 66.2 |
| CCc1c(C(=O)C(N)=O)c2c(OCC(=O)O)cccc2n1Cc1ccccc1 [Varespladib] (10000 nM) | DU-4475 | normalised response | % | 91.3 |
| Cc1c(C(=O)Nc2ccc(N3C[C@@H](C)O[C@@H](C)C3)nc2)cccc1-c1ccc(OC(F)(F)F)cc1 [Erismodegib] (10000 nM) | DU-4475 | normalised response | % | 99.6 |
| CC(C)C(=O)Nc1ccc([N+](=O)[O-])c(C(F)(F)F)c1 [Flutamide] (10000 nM) | DU-4475 | normalised response | % | 97.7 |
